Target: Human Neutrophil Elastase (HNE) (Homo sapiens)
Construct: Human Neutrophil Elastase (HNE) purified from serum
Sequence (P08246 30-247 limits assumed): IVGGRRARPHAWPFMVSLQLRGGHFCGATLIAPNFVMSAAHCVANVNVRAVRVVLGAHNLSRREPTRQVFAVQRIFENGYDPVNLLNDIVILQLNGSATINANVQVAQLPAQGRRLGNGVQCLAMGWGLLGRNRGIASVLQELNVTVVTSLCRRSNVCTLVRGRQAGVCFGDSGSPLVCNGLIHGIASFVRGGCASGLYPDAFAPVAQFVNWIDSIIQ
Test: Human Neutrophil Elastase Quenched-FRET Assay
Conditions: HNE purified from serum; substrate MeOSuc-AAPV-AMC; 15 min preincubation, 30 min incubation at room temperature; read-out: Inhibition of Human Neutrophil Elastase IC50
measured.parameter: IC50 (nM)

>>> measurement("O=C(NCC1COc2ccccc2O1)c1cc2ccccc2n(-c2cccc(C(F)(F)F)c2)c1=O (stereo not drawn)")
390

(I) O=C(NCc1ccc(F)c(F)c1)c1cc2ccccc2n(-c2cccc(C(F)(F)F)c2)c1=O
(II) CC(=O)Nc1ccc(CNC(=O)c2cc3ccccc3n(-c3cccc(C(F)(F)F)c3)c2=O)cc1
Lab note: record which item had the higher IC50, I or II . The response must carry the label of the picked entry.
I
